Provenance of the data: patent US8536157B2

Test system: PGE2 release in J774 macrophages
Experiment: PGE2 release from LPS/IFNγ-stimulated J774 macrophages (radioimmunoassay)
Assay type: cell-based, murine
Conditions: Mus musculus, J774, 24 h, 1 μM, 30 min pre-treatment, 24 hour incubation, read-out: Effects on PGE2 release in J774 macrophages at 1 μM as a % of LPS/IFNγ control, mean
Note to self: values exactly at 80% are true (1). So activity at 1 µM at or above 80% is true (1), below is false (0).

MOL	TARGET_OF_ASSAY	ASSIGNED_CATEGORY
COc1ccc(C(=NOCc2ccc([N+](=O)[O-])cc2)[C@H]2CC[C@H](CCO)CC2)cc1O	PGE2 release in J774 macrophages	true (1)
COc1ccc(/C(C)=N/OCc2cccc(C)c2)cc1O	PGE2 release in J774 macrophages	false (0)
COc1cc(-c2ccc(OC(F)(F)F)cc2)c(/C(C)=N/OCc2ccc([N+](=O)[O-])cc2)cc1O	PGE2 release in J774 macrophages	false (0)

Record C/C(=N\OCc1ccc2nonc2c1)c1ccc(F)c(O)c1 ; criterion: activity at 1 µM no lower than 80%. Met?
false (0)

Record COc1ccc(/C(C)=N/OCc2ccc([N+](=O)[O-])cc2)cc1O ; criterion: activity at 1 µM no lower than 80%. Met?
true (1)

---

Items are presented alongside their recorded melting point.

Suppose we examine the compound COc1cc(/C(C)=N/OCc2ccc([N+](=O)[O-])cc2)ccc1O [CP30261] ; what melting point value has been reported?
118.4 to 121.1 °C

---

Target: proteins in rat lung membranes
Test: Competitive binding assay with [3H]-CP2117 on rat lung membranes (RLM)
Conditions: given as Log IC50 (negative values); displacement of 10 nM [3H]-CP2117, overnight at 4° C.; ND- not detected
RESULT_TYPE: Log IC50 RLM binding
Reply: number alone, nothing else.

Look over these answered cases.
MOLECULE	Log IC50 RLM binding
COc1cc2c(cc1O)/C(=N/OCc1ccc3nonc3c1)CC2	−6.43
COc1cc2c(cc1O)/C(=N/OCc1ccc([N+](=O)[O-])cc1)C(C)(C)CC2	−6.19

Now for a further molecule.
Suppose we examine the molecule C/C(=N\OCc1ccc2nonc2c1)c1ccc(F)c(O)c1 ; what Log IC50 RLM binding value has been reported?
−5.28

---

Tested on: PGE2 release in U937 cells
Assay: PGE2 release from PMA-treated U937 cells (radioimmunoassay)
Format: cell-based, human
Details: Homo sapiens, U-937, 24 h, 24 hour incubation, read-out: Effects on PGE2 release in U937 cells at 1 μM as a % of PMA control, mean
RESULT_TYPE: activity at 1 µM (%)
Please reply with the bare figure in % and do not write the unit itself.

COMPOUND	MEAS_VALUE
COc1ccc(/C(C)=N/OCc2ccc3nonc3c2)cc1O [AA-1-80]	38
C/C(=N\OCc1ccc2nonc2c1)c1ccccc1 [AA-1-53]	91
COc1cc2c(cc1O)/C(=N/OCc1ccc([N+](=O)[O-])cc1)C(C)(C)CC2 [AA-1-39-2]	100

Suppose we examine the compound COc1cc([C@H]2CC[C@](C)(CO)CC2)c(C(C)=NOCc2ccc3nonc3c2)cc1O [CP30452] ; what activity at 1 µM value has been reported?
89

Suppose we examine the compound COc1cc(/C(C)=N/OCc2ccc3nonc3c2)ccc1OS(N)(=O)=O [AA-1-78] ; what activity at 1 µM value has been reported?
19

Suppose we examine the compound COc1cc(/C(C)=N/OCc2ccc3nonc3c2)ccc1O [AA-1-56] ; what activity at 1 µM value has been reported?
16

Suppose we examine the compound COc1cc([C@H]2CC[C@@](C)(CO)CC2)c(C(C)=NOCc2ccc([N+](=O)[O-])cc2)cc1O [CP30451] ; what activity at 1 µM value has been reported?
67

Suppose we examine the compound Brc1cc2c(cc1/C=N/OCc1ccccc1)OCO2 [Compound 10-OK-07a] ; what activity at 1 µM value has been reported?
114

Suppose we examine the compound COc1ccc(/C(C)=N/OCc2ccc3nonc3c2)cc1 [AA-1-54] ; what activity at 1 µM value has been reported?
76

Suppose we examine the compound COc1ccc(/C(C)=N/OCc2ccc3nonc3c2)cc1OC [AA-1-58] ; what activity at 1 µM value has been reported?
111
